Values compiled from the supplement of paper PMC10037445.

- Test system: RAW-Dual
- assay method text: NF-kB SEAP reporter activity, fold change vs agonist alone; higher = enhanced NF-kB activity
- condition parameters: library stock concentration (final ~1000-fold dilution): 10 mM; cytotoxicity flag (confluency mask): not cytotoxic; agonist: Imiquimod (TLR7) […]
The full ranking holds about 2,900 compounds; the median of “NF-kB SEAP reporter activity, fold change vs agonist alone” is about 0.99, and the highest 2% start at about 2.6. The full list was thinned out, with the highest values kept by preference.
Cut-off 0.9 on NF-kB SEAP reporter activity, inclusive. At or above means class 1; below means class 0.

[ask] Hi, just wondering whether Cc1cc2ncc(C(=O)NCC(C)(C)NCC(=O)N3CCCC3C#N)cn2n1 (configuration not stated) shows NF-kB SEAP reporter activity of 0.9 or higher.
[reply] class 1

[ask] Note, next up: CC(C)CC(NP(=O)(O)OC1OC(C)C(O)C(O)C1O)C(=O)NC(Cc1c[nH]c2ccccc12)C(=O)O (configuration not stated)
[reply] class 1

[ask] Same thing, different molecule: COc1ccc(CC(N)C(=O)NC2C(CO)OC(n3cnc4c(N(C)C)ncnc43)C2O)cc1.Cl.Cl (configuration not stated)
[reply] class 0

[ask] Next entry: `COc1ccccc1Nc1nc(-c2sc(NC(C)=O)nc2C)cs1`
[reply] class 0

[ask] What do we get for `C[C@@H]1O[C@@H](O[C@H]2[C@H](OC(=O)[C@]34CCC(C)(C)C[C@H]3C3=CC[C@@H]5[C@@]6(C)C[C@H](O)[C@H](O[C@@H]7O[C@H](CO)[C@@H](O)[C@H](O)[C@H]7O)[C@@](C)(CO)[C@@H]6CC[C@@]5(C)[C@]3(C)CC4)O[C@H](CO)[C@@H](O)[C@@H]2O)[C@H](O)[C@H](O)[C@H]1O[C@@H]1OC[C@@H](O)[C@H](O)[C@H]1O` ?
[reply] class 0

[ask] Now the molecule CC(C(=O)O)c1cccc(C(=O)c2ccccc2)c1 (configuration not stated)
[reply] class 0
